Item-by-item account of ED50
molecular target: Sterol O-acyltransferase, Soat (Rattus norvegicus) (UniProt Q7TQM4+O70536); assay: Effective dose to reduce plasma total cholesterol level by 50% of the control value in cholesterol fed rats; assay type: functional

// known answers, use as guide
| chemical_structure | tested_target | measured_result |
| --- | --- | --- |
| O=C(Nc1c(F)cc(F)cc1F)N(Cc1ccc(-n2cccc2)cc1)C1CCCCCC1 | Sterol O-acyltransferase, Soat (Rattus norvegicus) (UniProt Q7TQM4+O70536) | > 1 mg/kg |
| CSc1cc(C)nc(SC)c1NC(=O)N(Cc1ccccc1)Cc1ccc(-c2ccn(C)n2)cc1 | Sterol O-acyltransferase, Soat (Rattus norvegicus) (UniProt Q7TQM4+O70536) | > 0.32 mg/kg |
| COc1ccccc1CN(Cc1cccc(-c2cc[nH]n2)c1)C(=O)Nc1c(SC)cc(C)nc1SC | Sterol O-acyltransferase, Soat (Rattus norvegicus) (UniProt Q7TQM4+O70536) | > 0.1 mg/kg |
| Cc1cc(C)c(NC(=O)N(Cc2cc(-c3ccccc3)on2)C2CCCCCC2)c(C)c1 | Sterol O-acyltransferase, Soat (Rattus norvegicus) (UniProt Q7TQM4+O70536) | > 1 mg/kg |

// ED50 lookup, molecule = "CSc1cc(C)nc(SC)c1NC(=O)N(CCc1ccccc1)Cc1cccc(-c2cc[nH]n2)c1" , result: > 0.1 mg/kg

* * *

The entries below come with measured ED50 values attached.
molecular target: Sterol O-acyltransferase, Soat (Rattus norvegicus) (UniProt Q7TQM4+O70536); assay: Effective dose to reduce plasma total cholesterol level by 50% of the control value in cholesterol fed rats; type: functional

| chemical_structure | ED50 |
| --- | --- |
| Cc1cc(C)c(NC(=O)N(Cc2ccc(-c3ccnn3C)cc2)C2CCCCCC2)c(C)c1 | < 1 mg/kg |

Item: "Cc1cc(C)c(NC(=O)N(Cc2ccc(-c3cc[nH]n3)cc2)C2CCCCCC2)c(C)c1" | ED50: > 1 mg/kg

Form field ED50, entry "CSc1cc(C)nc(SC)c1NC(=O)N(Cc1ccc(N(C)C)cc1)Cc1cccc(-c2cc[nH]n2)c1" : < 0.1 mg/kg

Value of measured ED50 for the entry "CSc1cc(C)nc(SC)c1NC(=O)N(Cc1cccc(-c2cc[nH]n2)c1)C1CCCCCC1" : > 0.32 mg/kg

Measured ED50 of "Cc1cc(C)c(NC(=O)N(Cc2cccc(-c3cc[nH]n3)c2)C2CCCCC2)c(C)c1" : 0.12 mg/kg

Kindly note the recorded ED50 for "Cc1cc(C)c(NC(=O)N(Cc2ccc(-n3cccc3)cc2)C2CCCCCC2)c(C)c1" , which is < 1 mg/kg

Value of measured ED50 for the entry "O=C(Nc1c(F)cc(F)cc1F)N(Cc1ccc(F)cc1)Cc1cccc(-c2cc[nH]n2)c1" : < 0.32 mg/kg

* * *

target: Sterol O-acyltransferase, Soat (Rattus norvegicus) (UniProt Q7TQM4+O70536); experiment: Effective dose to reduce plasma total cholesterol level by 50% of the control value in cholesterol fed rats; format: functional
measurement_type: ED50

The recorded ED50 with Sterol O-acyltransferase, Soat (Rattus norvegicus) (UniProt Q7TQM4+O70536) for "Cc1cc(C)c(NC(=O)N(Cc2ccc(-c3cnn(C)c3)cc2)C2CCCCCC2)c(C)c1" was 0.31 mg/kg

For the compound "CSc1cc(C)nc(SC)c1NC(=O)N(Cc1ccccc1)Cc1ccc(-c2cnn(C)c2)cc1" , the measured ED50 on Sterol O-acyltransferase, Soat (Rattus norvegicus) (UniProt Q7TQM4+O70536) was > 0.1 mg/kg

Reported Sterol O-acyltransferase, Soat (Rattus norvegicus) (UniProt Q7TQM4+O70536) ED50 for item "Cc1cc(C)c(NC(=O)N(Cc2cccc(-c3nnnn3C)c2)C2CCCCCC2)c(C)c1" was > 1 mg/kg

Tested on Sterol O-acyltransferase, Soat (Rattus norvegicus) (UniProt Q7TQM4+O70536), the item "Cc1cc(C)c(NC(=O)N(Cc2ccc(-n3nccn3)cc2)C2CCCCCC2)c(C)c1" showed ED50 equal to > 1 mg/kg

"CSc1cc(C)nc(SC)c1NC(=O)N(Cc1ccc(-c2cc[nH]n2)cc1)C1CCCCCC1" tested on Sterol O-acyltransferase, Soat (Rattus norvegicus) (UniProt Q7TQM4+O70536) gave ED50: < 0.32 mg/kg

Log: Sterol O-acyltransferase, Soat (Rattus norvegicus) (UniProt Q7TQM4+O70536), compound "Cc1cc(C)c(NC(=O)N(Cc2ccc(-n3cncn3)cc2)C2CCCCCC2)c(C)c1" , ED50 = > 1 mg/kg

Here "O=C(Nc1c(F)cc(F)cc1F)N(Cc1cccc(-c2cc[nH]n2)c1)C1CCCCCC1" was tested on Sterol O-acyltransferase, Soat (Rattus norvegicus) (UniProt Q7TQM4+O70536), and its ED50 came to 0.062 mg/kg

Form: item "CSc1cc(C)nc(SC)c1NC(=O)N(Cc1ccc(-c2cnn(C)c2)cc1)C1CCCCCC1" ; test system Sterol O-acyltransferase, Soat (Rattus norvegicus) (UniProt Q7TQM4+O70536); ED50: > 0.1 mg/kg

ED50 on Sterol O-acyltransferase, Soat (Rattus norvegicus) (UniProt Q7TQM4+O70536) for "Cc1cc(C)c(NC(=O)N(Cc2c[nH]c(-c3ccccc3)n2)C2CCCCCC2)c(C)c1" is > 1 mg/kg

* * *

target: Sterol O-acyltransferase, Soat (Rattus norvegicus) (UniProt Q7TQM4+O70536); assay: Effective dose to reduce plasma total cholesterol level by 50% of the control value in cholesterol fed rats; format: functional
measurement_type: ED50 (mg/kg)

I = CCCCCCCN(Cc1ccc(CC(C)(C)C)cc1)C(=O)Nc1ccc(F)cc1F
II = Cc1cc(C)c(NC(=O)N(Cc2cccc(-n3cccc3)c2)C2CCCCCC2)c(C)c1
Task: # min-compare on ED50 between I and II Pick one; state its label.
Result: II

* * *

biological target: O-acyltransferase (Oryctolagus cuniculus, UniProt G1SFD9)
Sequence (G1SFD9 1-524): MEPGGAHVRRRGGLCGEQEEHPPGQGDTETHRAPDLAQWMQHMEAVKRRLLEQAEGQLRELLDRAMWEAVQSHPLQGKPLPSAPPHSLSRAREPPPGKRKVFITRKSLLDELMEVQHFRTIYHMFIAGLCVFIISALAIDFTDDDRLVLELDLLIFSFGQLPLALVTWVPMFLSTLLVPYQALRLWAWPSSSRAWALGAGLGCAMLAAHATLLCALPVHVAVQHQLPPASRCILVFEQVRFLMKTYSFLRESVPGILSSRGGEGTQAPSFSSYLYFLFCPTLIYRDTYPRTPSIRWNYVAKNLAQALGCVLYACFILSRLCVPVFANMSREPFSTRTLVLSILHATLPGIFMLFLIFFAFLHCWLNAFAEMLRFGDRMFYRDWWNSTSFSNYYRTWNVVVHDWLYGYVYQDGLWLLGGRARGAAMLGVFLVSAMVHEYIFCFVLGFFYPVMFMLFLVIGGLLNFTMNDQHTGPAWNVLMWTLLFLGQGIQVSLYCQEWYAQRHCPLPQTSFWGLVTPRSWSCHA
measurement_type: IC50 (nM)

| chemical_structure | IC50, nM |
| --- | --- |
| CSc1cc(C)nc(SC)c1NC(=O)N(Cc1cccc(-c2cc[nH]n2)c1)C1CCCCCC1 | 260 |
| Cc1cc(C)c(NC(=O)N(Cc2ccc(-c3ccn(C)n3)cc2)C2CCCCCC2)c(C)c1 | 44 |
| O=C(Nc1c(F)cc(F)cc1F)N(Cc1ccccc1)Cc1cccc(-c2cc[nH]n2)c1 | 14 |
| Cc1cc(C)c(NC(=O)N(Cc2ccccc2)Cc2cccc(-c3cc[nH]n3)c2)c(C)c1 | 21 |
| Cc1cc(C)c(NC(=O)N(Cc2ccc(-c3n[nH]c(C)n3)cc2)C2CCCCCC2)c(C)c1 | 120 |

a = Cc1cc(C)c(NC(=O)N(Cc2ccc(-n3ccnn3)cc2)C2CCCCCC2)c(C)c1
b = Cc1cc(C)c(NC(=O)N(Cc2ccc(-n3cccc3)cc2)C2CCCCCC2)c(C)c1
Task: Hi! Which is lower in terms of IC50, the first one a or the second one b ? Give the label under which the chosen entry appears.
Result: b
(b: 28 nM, a: 42 nM)

* * *

biological target: Sterol O-acyltransferase, Soat (Rattus norvegicus) (UniProt Q7TQM4+O70536); test: Percentage reduction in total cholesterol level at <1 mg/kg; type: functional, organism-based
measurement_type: Reduction (%)

| chemical_structure | tested_target | value_units | Reduction |
| --- | --- | --- | --- |
| Cc1cc(C)c(NC(=O)N(Cc2cccc(-c3c[nH]cn3)c2)C2CCCCCC2)c(C)c1 | Sterol O-acyltransferase, Soat (Rattus norvegicus) (UniProt Q7TQM4+O70536) | % | 84 |
| Cc1cc(C)c(NC(=O)N(Cc2ccc(-c3ccn(C)n3)cc2)C2CCCCCC2)c(C)c1 | Sterol O-acyltransferase, Soat (Rattus norvegicus) (UniProt Q7TQM4+O70536) | % | 88 |
| Cc1cc(C)c(NC(=O)N(Cc2cccc(-c3cnn(C)c3)c2)C2CCCCCC2)c(C)c1 | Sterol O-acyltransferase, Soat (Rattus norvegicus) (UniProt Q7TQM4+O70536) | % | 74 |
| Cc1cc(C)c(NC(=O)N(Cc2cccc(-c3cc[nH]n3)c2)C2CCCC2)c(C)c1 | Sterol O-acyltransferase, Soat (Rattus norvegicus) (UniProt Q7TQM4+O70536) | % | 76 |
| Cc1cc(C)c(NC(=O)N(Cc2ccc(-c3ccnn3C)cc2)C2CCCCCC2)c(C)c1 | Sterol O-acyltransferase, Soat (Rattus norvegicus) (UniProt Q7TQM4+O70536) | % | 64 |
| Cc1cc(C)c(NC(=O)N(Cc2cccc(-c3ccn(C)n3)c2)C2CCCCCC2)c(C)c1 | Sterol O-acyltransferase, Soat (Rattus norvegicus) (UniProt Q7TQM4+O70536) | % | 78 |
| Cc1cc(C)c(NC(=O)N(Cc2cc(-c3ccccc3)cs2)C2CCCCCC2)c(C)c1 | Sterol O-acyltransferase, Soat (Rattus norvegicus) (UniProt Q7TQM4+O70536) | % | 69 |
